- ASSAY PROCEDURE: Inhibition of MBNL1 binding to r(CUG)12 RNA sequence (unknown origin) assessed as inhibition constant by gel electrophoresis mobility shift assay
Reported values of Ki for individual entries
Expressed in µM, but write only the number.

- STRUCTURE: "COc1ccc2nc3cc(Cl)ccc3c(NCCCCNc3nc(N)nc(N)n3)c2c1"
  MEASURED PARAMETER: "Ki"
  VALUE UNITS: "µM"
  READOUT VALUE: 6

Now for another entry.
The recorded Ki for entry N=C(NCCCCNc1nc(N)nc(N)n1)c1ccc(C(=N)NCCCCNc2nc(N)nc(N)n2)cc1 equals 8

----------
- ASSAY PROCEDURE: Binding affinity to d(CTG) U-U DNA sequence (unknown origin) assessed as equilibrium dissociation constant by isothermal titration method
- CONDITION DESCRIPTION: read-out: Kd(app)
MEASURED PARAMETER: Kd (µM)
Expressed in µM, but write only the number.

The recorded Kd for entry CNC(=O)c1cccc2c(NCCCCNc3nc(N)nc(N)n3)c3ccccc3nc12 equals 17.9

This collection of values is drawn from ChEMBL document CHEMBL4433229.
